Hi there, I'd appreciate the recorded neutralization IC50 for every entry that follows.
assayTarget: Env of HIV-1 strain H086.8 (HIV-1)
experimentalDetails: cell-based or functional assay
One number for each entry, in µg/mL.

Past entries and their recorded results:
* γ52κ18 (antibody, V domains shown) VH: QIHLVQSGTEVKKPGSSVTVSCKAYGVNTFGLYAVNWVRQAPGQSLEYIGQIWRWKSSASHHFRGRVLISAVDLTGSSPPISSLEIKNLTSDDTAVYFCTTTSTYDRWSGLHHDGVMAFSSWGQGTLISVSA VL: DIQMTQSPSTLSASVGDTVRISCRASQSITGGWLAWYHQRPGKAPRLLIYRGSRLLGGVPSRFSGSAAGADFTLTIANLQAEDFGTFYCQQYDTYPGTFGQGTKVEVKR | 0.464
* γ3κ11 (antibody, V domains shown) VH: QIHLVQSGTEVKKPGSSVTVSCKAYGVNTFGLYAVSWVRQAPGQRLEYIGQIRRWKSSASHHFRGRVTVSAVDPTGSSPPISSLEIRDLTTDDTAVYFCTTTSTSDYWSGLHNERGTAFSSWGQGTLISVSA VL: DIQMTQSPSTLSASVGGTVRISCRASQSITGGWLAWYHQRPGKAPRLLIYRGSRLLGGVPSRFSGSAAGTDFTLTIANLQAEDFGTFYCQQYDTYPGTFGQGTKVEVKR | 0.778
* γ52κ11 (antibody, V domains shown) VH: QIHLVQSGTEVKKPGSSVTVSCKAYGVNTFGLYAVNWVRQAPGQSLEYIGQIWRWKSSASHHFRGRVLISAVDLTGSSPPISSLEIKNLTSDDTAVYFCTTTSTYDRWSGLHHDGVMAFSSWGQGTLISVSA VL: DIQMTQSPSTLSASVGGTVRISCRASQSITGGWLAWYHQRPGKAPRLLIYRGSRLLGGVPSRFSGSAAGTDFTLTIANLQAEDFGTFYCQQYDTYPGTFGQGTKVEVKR | 1.64

From here, focus on the item given below.
Query: neutralization IC50; subject: γ52κ61 (antibody, V domains shown) VH: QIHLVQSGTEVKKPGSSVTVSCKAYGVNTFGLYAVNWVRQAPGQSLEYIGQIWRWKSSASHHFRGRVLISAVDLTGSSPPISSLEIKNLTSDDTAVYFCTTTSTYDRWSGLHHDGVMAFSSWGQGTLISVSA VL: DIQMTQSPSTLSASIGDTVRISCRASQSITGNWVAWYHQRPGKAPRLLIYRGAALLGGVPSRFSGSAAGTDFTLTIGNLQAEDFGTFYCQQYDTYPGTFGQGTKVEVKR
0.242
